// provenance: patent US9687479B2

# Tested target: Human thrombin (Homo sapiens (Human), UniProt P00734)
# Procedure text: Thrombin protease activity inhibition assay (chromogenic substrate S-2238)
# Format: biochemical
# Experimental parameters: 3 nM thrombin, 125 μM S-2238, 10 min pre-incubation, RT
Measured IC50 accompanies every entry in the list below.
Test readout: IC50

1) O=C(c1ccc(N2CCOCC2)cc1)n1nc(-c2cccn(Cc3cccnc3)c2=O)cc1NCc1ccc(Cl)s1 : < 100 nM
2) O=C(c1cccs1)n1nc(-c2cccn(CCN3CCOCC3)c2=O)cc1NCc1ccc(Cl)s1 : > 100000 nM
3) O=C(c1ccc(N2CCOCC2)cc1)n1nc(-c2cccn(Cc3cccs3)c2=O)cc1NCc1ccc(Cl)s1 : < 100 nM
4) O=C(c1ccco1)n1nc(-c2cccn(Cc3ccccn3)c2=O)cc1NCc1ccccc1 : < 100 nM
5) O=C(c1cccs1)n1nc(-c2cccn(Cc3ccco3)c2=O)cc1NCc1ccc(Cl)s1 : < 100 nM
6) O=C(c1ccco1)n1nc(-c2cccn(Cc3ccoc3)c2=O)cc1NCc1ccc(Cl)s1 : < 100 nM
7) O=c1c(-c2cc(NCc3ccc(Cl)s3)[nH]n2)cccn1CCN1CCOCC1 : 10000 to 100000 nM
8) CC(C)(C)OC(=O)Cn1cccc(-c2cc(NCc3ccc(Cl)s3)n(C(=O)c3ccoc3)n2)c1=O : < 100 nM
